Test system: ragweed
experiment_summary: Test C pre-/postemergence herbicide test
Assay type: in vivo, Ambrosia elatior
test_settings: Postemergence, 125 g ai/ha; scale 0 to 100 (0 no effect, 100 complete control)
# reported Plant response rating, Ragweed; entries follow
Give your answer as a number; write no unit.

Known Plant response rating, Ragweed results, listed for orientation:
Value lookup for Plant response rating, Ragweed; key = O=C1NCC(c2cccc(C(F)(F)F)c2)C1C(=O)Nc1ccc(F)c(F)c1F (stereo not drawn) [Compound 315]
65

Give its Plant response rating, Ragweed value. Item: CN1CC(c2ccc(C(F)(F)F)cc2)C(C(=O)Nc2ccccc2F)C1=O (stereo not drawn) [Compound 304]
35

Others:
Item O=C1NCC(c2ccc(F)c(C(F)(F)F)c2)C1C(=O)Nc1ccccc1F (racemic) [Compound 76] has what recorded Plant response rating, Ragweed?
40

Could you share which Plant response rating, Ragweed value was measured for CN1CC(c2cccc(C(F)(F)F)c2)C(C(=O)Nc2ccccc2F)C1=O (stereo not drawn) [Compound 277] ?
40

May I ask what Plant response rating, Ragweed has been recorded for O=C1NCC(c2ccc(C(F)(F)F)cc2)C1C(=O)Nc1ccc(F)c(F)c1F (stereo not drawn) [Compound 232] ?
85

Fill in the blank: the reported Plant response rating, Ragweed of O=C1NCC(c2cccc(Br)c2)C1C(=O)Nc1cccc(F)c1F (stereo not drawn) [Compound 309] is ____.
35

Ref: patent US10294202B2
